- Test system: human skin keratinocytes and/or fibroblasts
- assay.details: in vitro ROS probe assay: protection of live skin cells against ROS induced by visible light and infrared radiation
- Type: cell-based
- Design: key: Strong: “strong” refers to a percent protection greater than 70%; “Medium” refers to a percent protection less than or equal to 70% but greater than or equal to 40%; “Low” refers to a percent protection less than 40%; Negative: The term “negative” is used when there is no protection
- particulars: ROS induced by visible light (100 J/cm^2); cells pre-treated 24 hours at 10 μg/ml (0.001%), antioxidant removed before exposure
reported.endpoint: Visible light protection %

INSERT INTO results (compound_string, measured_value) VALUES
  ('COc1ccc(CCC(=O)c2c(O)cc(O[C@@H]3O[C@H](CO)[C@@H](O)[C@H](O)[C@H]3O[C@@H]3O[C@@H](C)[C@H](O)[C@@H](O)[C@H]3O)cc2O)cc1O', 'Negative'),
  ('C=CC(C)(C)c1cc(/C=C/C(=O)c2ccc(O)cc2)c(OC)cc1O', 'Negative'),
  ('O=C(CCc1ccc(O)cc1)c1c(O)cc(O)cc1O', 'Negative');
